- method: physchem
- Type: physicochemical
- run parameters: water
measured metric: solubility at 24 h (µg/mL)

molecule | result units | solubility at 24 h
c1ccc2[nH]nnc2c1 [BTA, Benzotriazole, reference compound] | µg/mL | 19800
S=C(NCn1nnc2ccccc21)NCn1nnc2ccccc21 [BTA-TU] | µg/mL | 10
O=C(O)CN(Cn1nnc2ccccc21)Cn1nnc2ccccc21 [BTA-G] | µg/mL | 6900
ON(Cn1nnc2ccccc21)Cn1nnc2ccccc21 [BTA-NOH] | µg/mL | 800
O=C(NN(Cn1nnc2ccccc21)Cn1nnc2ccccc21)c1ccccc1 [BTA-HYR] | µg/mL | 60
O=C(NCn1nnc2ccccc21)NCn1nnc2ccccc21 [BTA-U, 1,3-bis(benzotriazol-1'-ylmethyl) urea] | µg/mL | 20
O=S(=O)(NCn1nnc2ccccc21)c1cccc2c(S(=O)(=O)NCn3nnc4ccccc43)cccc12 [BTA-NDSA] | µg/mL | 510
O=C(O)c1ccc(S(=O)(=O)NCn2nnc3ccccc32)cc1 [BTA-4CBSA] | µg/mL | 110

P. c1ccc2c(c1)ncn2CN1CCN(Cn2cnc3ccccc32)CC1 [BI-P]
Q. O=S(=O)(NCn1nnc2ccccc21)c1cccc(S(=O)(=O)NCn2nnc3ccccc32)c1 [BTA-BDSA]
Exercise: Given the two records P and Q , choose the one whose solubility at 24 h value is lower. The response must carry the label of the picked entry.
Solution: P
(P: 530 µg/mL, Q: 890 µg/mL)

A. c1ccc2c(c1)nnn2CN1CCN(Cn2nnc3ccccc32)CC1 [BTA-P]
B. c1ccc2c(c1)nnn2CNCn1nnc2ccccc21 [BTA-A, bis(benzotriazol-1-ylmethyl) amine]
Exercise: Given the two records A and B , choose the one whose solubility at 24 h value is lower. The response must carry the label of the picked entry.
Solution: A
(A: 10 µg/mL, B: 390 µg/mL)
